Here, each record is paired with measured IC50 data.
# System: SW480
# Experimental details: Cytotoxicity against human SW480 cells by MTT assay
# Assay type: functional, cell-based
State just the number; it will be interpreted in µM.

Some solved cases for reference:
C=C1C(=O)[C@]23[C@H](OC(=O)C(Cc4ccccc4)NC(=O)/C=C/C(=O)O)[C@@H]1CC[C@H]2[C@@]12CO[C@]3(O)[C@@H](O)[C@@H]1C(C)(C)CCC2=O (stereo partly specified) ... 2.89
C=C1C(=O)[C@]23[C@H](OC(=O)CNC(=O)CCCCC(=O)O)[C@@H]1CC[C@H]2[C@@]12CO[C@]3(O)[C@@H](O)[C@@H]1C(C)(C)CC[C@@H]2OC(C)=O ... 10.7
C=C1C(=O)[C@]23[C@H](OC(=O)CNC(=O)c4ccccc4C(=O)O)[C@@H]1CC[C@H]2[C@@]12CO[C@]3(O)[C@@H](O)[C@@H]1C(C)(C)CC[C@@H]2OS(=O)(=O)CCC ... 25.4

INPUT: Give the reported IC50 for this compound. O=c1[nH]cc(F)c(=O)[nH]1
OUTPUT: 13.2

INPUT: Give the reported IC50 for this compound. C=C1C(=O)[C@]23[C@H](OC(=O)C(N)Cc4ccccc4)[C@@H]1CC[C@H]2[C@@]12CO[C@]3(O)[C@@H](O)[C@@H]1C(C)(C)CCC2=O (stereo partly specified)
OUTPUT: 15

INPUT: Give the reported IC50 for this compound. C=C1C(=O)[C@]23[C@H](OC(=O)CNC(=O)CCCCC(=O)O)[C@@H]1CC[C@H]2[C@@]12CO[C@]3(O)[C@@H](O)[C@@H]1C(C)(C)CCC2=O
OUTPUT: 10.2

Reference source for all entries: ChEMBL document CHEMBL1155921
